Where do these numbers come from? They come from patent US20200407457A1.

target: TRAILR2 receptor on the surface of human tumor cells (human, UniProt O14763 56-440); assay: cell-based or functional assay
REPORTED METRIC: eff. (efficiency %), cytotoxic effect on NCI-H1975 cells
Answer with the number, then the unit.

Please look up its eff. (efficiency %), cytotoxic effect on NCI-H1975 cells: Zapadcine-1b (antibody, V domains shown, MMAD coupled through linker Mc-Vc-PAB by thiol conventional coupling, cleavable; positions not given) VH: QVQLVQSGSELKKPGASVKVSCKASGYTFTDFSMNWVRQAPGQGLEWMGWINTETGEPTYADDFKGRFVFSLDTSVSTAYLQISSLKAEDTAVYYCARIDYWGQGTTVTVSS VL: DIVMTQSPLSLPVTPGEPASISCRSSQSLVHSNGNTYLHWYLQKPGQSPQLLIYKVSNRFSGVPDRFSGSGSGTDFTLKISRVEAEDVGVYYCFQSTHVPHTFGQGTKLEIKR 83.4%
